Assay: Human liver microsome stability assay
Assay type: in vitro ADME
Settings: both sexes, human, microsomes, pH 7.4
Consider the following compounds; for each one, report its log10 half-life at 0.5 μM.
Note: values are log10 of half-life at 0.5 μM expressed in min.

Cn1cc(-c2cc(S(=O)(=O)NCc3cccnc3)ccc2OCC2CC2)c2cc[nH]c2c1=O :: -0.10
CC(C)S(=O)(=O)c1ccc(Oc2ccc(F)cc2F)c(-c2cn(C)c(=O)c3[nH]ccc23)c1 :: 1.36
Cn1cc(-c2cc(NS(=O)(=O)CC(F)(F)F)ccc2OC2CCC(F)(F)CC2)c2cc[nH]c2c1=O :: 1.67
Cn1cc(-c2cc(CC#N)ccc2OCC2CC2)c2cc[nH]c2c1=O :: 1.64

Give one value of log10 half-life at 0.5 μM per listed compound.
1. Cn1cc(-c2cc(S(C)(=O)=O)ccc2Oc2cccc(Cl)c2)c2cc[nH]c2c1=O
2. CN(C)C1CCN(S(=O)(=O)c2ccc(OCC3CC3)c(-c3cn(C)c(=O)c4[nH]ccc34)c2)C1 (stereo not shown)
3. CN(C)S(=O)(=O)c1cnc(Oc2ccc(F)cc2F)c(-c2cn(C)c(=O)c3[nH]ccc23)c1

1. 1.52
2. 0.90
3. 0.90

// each compound listed below needs its log10 half-life at 0.5 μM
1. Cn1cc(-c2cc(NS(C)(=O)=O)ccc2Oc2cccnc2)c2cc[nH]c2c1=O
2. Cn1cc(-c2cc(N3CCCS3(=O)=O)ccc2Oc2ccc(F)cc2F)c2cc[nH]c2c1=O
3. CCOc1ccc(S(C)(=O)=O)cc1-c1cn(C)c(=O)c2[nH]ccc12

1.68
1.54
2.07

List log10 half-life at 0.5 μM for every entry below, keeping the order given.
1. Cn1cc(-c2cc(C(=O)O)ccc2Oc2ccccc2)c2cc[nH]c2c1=O
2. CCOC(=O)c1cc2c(-c3cc(NS(C)(=O)=O)ccc3Oc3ccccc3)cn(C)c(=O)c2[nH]1
3. Cn1cc(-c2cc(S(=O)(=O)N3CCOCC3)ccc2Oc2ccc(F)cc2F)c2cc[nH]c2c1=O
4. Cn1cc(-c2cc(C3=CCN(C(=O)OC(C)(C)C)CC3)ccc2OCC2CC2)c2cc[nH]c2c1=O

1. 1.89
2. 0.30
3. 0.60
4. 1.32

// for each compound in input: emit log10 half-life at 0.5 μM
1. Cn1cc(-c2cc(C(=O)NCc3ccccn3)ccc2Oc2ccc(F)cc2F)c2cc[nH]c2c1=O
2. Cn1cc(-c2cc(NS(C)(=O)=O)ccc2OC2CCCOC2)c2cc[nH]c2c1=O (stereo not shown)
3. CCS(=O)(=O)Nc1ccc(Oc2ccc(F)cc2F)c(-c2cn(C)c(=O)c3[nH]cc(CN4CCOCC4)c23)c1

[1.73, 1.83, 1.77]

---

Tested on: OPM-2 human multiple myeloma xenograft tumors
Assay: animal or person
Conditions: Mus musculus, OPM-2, po, read-out: % TGD (tumor growth delay), OPM-2; 3 mg/kg/day; PO, QDx21; vehicle A
measured_endpoint: change in vivo at 3 mg/kg (%)
Numbers only, in %.

CNS(=O)(=O)c1ccc(OCC2CC2)c(-c2cn(C)c(=O)c3[nH]ccc23)c1 :: 29
CCS(=O)(=O)c1ccc(NCC2CC2)c(-c2cn(C)c(=O)c3[nH]ccc23)c1 :: 82
Cn1cc(-c2cc(S(N)(=O)=O)ccc2Oc2ccc(F)cc2F)c2cc[nH]c2c1=O :: 78
CCS(=O)(=O)c1ccc(OC2CCC(F)(F)CC2)c(-c2cn(C)c(=O)c3[nH]ccc23)c1 :: 77

Next molecule, change in vivo at 3 mg/kg to be filled in.
Look at this molecule and give its reported change in vivo at 3 mg/kg. "CCS(=O)(=O)Nc1ccc(Oc2ccc(F)cc2F)c(-c2cn(C)c(=O)c3[nH]ccc23)c1"
131
